All values here come from patent US20230064809A1.

Known IC50 of a selection of compounds
Target: DGKα (Homo sapiens, UniProt P23743)
Sequence (P23743 with tags, fused parts or gaps): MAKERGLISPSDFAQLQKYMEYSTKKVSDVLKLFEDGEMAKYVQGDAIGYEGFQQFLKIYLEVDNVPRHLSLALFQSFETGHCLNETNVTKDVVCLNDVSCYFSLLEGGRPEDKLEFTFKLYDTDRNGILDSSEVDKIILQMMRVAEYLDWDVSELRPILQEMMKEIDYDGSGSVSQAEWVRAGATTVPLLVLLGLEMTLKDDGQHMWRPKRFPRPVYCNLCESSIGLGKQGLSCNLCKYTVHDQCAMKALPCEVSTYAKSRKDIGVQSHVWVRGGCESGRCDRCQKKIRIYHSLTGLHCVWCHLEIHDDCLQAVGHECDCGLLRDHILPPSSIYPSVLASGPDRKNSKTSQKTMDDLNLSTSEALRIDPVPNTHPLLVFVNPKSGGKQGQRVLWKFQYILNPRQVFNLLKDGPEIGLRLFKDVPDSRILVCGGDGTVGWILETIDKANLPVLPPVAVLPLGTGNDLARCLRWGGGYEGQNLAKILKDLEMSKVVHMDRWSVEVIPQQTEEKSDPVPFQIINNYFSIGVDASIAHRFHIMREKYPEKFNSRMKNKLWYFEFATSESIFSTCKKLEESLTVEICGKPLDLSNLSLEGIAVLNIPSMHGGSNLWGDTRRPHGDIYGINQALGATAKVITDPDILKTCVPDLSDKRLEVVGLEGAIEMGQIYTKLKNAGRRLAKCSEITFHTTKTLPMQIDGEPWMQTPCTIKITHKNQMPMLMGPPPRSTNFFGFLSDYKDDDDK
Test: Human DGKα kinase activity inhibition assay (ADP-Glo)
Details: in vitro, C-terminally FLAG-tagged recombinant full-length human DGKα, 1,2-dioleoyl-sn-glycerol substrate, ADP-Glo readout
Property: IC50 (nM)

1) Cn1c(=O)c(C(N)=O)c(N2CCC3(CN(c4ccc(F)cc4)C3)C2)c2ccccc21 ... 158
2) Cn1c(=O)c(C#N)c(N2CCC3(CCN(c4ccc(F)c(F)c4)C3)CC2)c2ccccc21 ... 39
3) Cn1c(=O)c(C#N)c(N2CC3(CCCN(c4ccc(F)cc4)C3)C2)c2ccccc21 ... 15
4) Cn1c(=O)c(C#N)c(N2CCC3(CCN(c4ccc(F)cc4)C3)CC2)c2ccccc21 ... 38
5) COCCN(C)c1ccc2c(N3CCC4(CCN(c5cccc(Cl)c5)C4)CC3)c(C(N)=O)c(=O)n(C)c2c1 ... 49
6) Cn1c(=O)c(C#N)c(N2CCC3(CCN(c4ccccc4)C3)CC2)c2ccccc21 ... 34
7) CN(C)c1ccc(N2CC3(CCN(c4c(C#N)c(=O)n(C)c5ccccc45)C3)C2)cc1 ... 163
8) Cn1c(=O)c(C#N)c(N2CCC3(CN(c4ccc(OC(F)(F)F)cc4)C3)C2)c2ccccc21 ... 3.5
9) COCCN(C)c1ccc2c(N3CCC4(CCN(c5cccc(OC(F)(F)F)c5)C4)CC3)c(C(N)=O)c(=O)n(C)c2c1 ... 68
10) Cn1c(=O)c(C#N)c(N2CC3(CCN(c4ccc(F)cc4)C3)C2)c2ccccc21 ... 63
11) Cn1c(=O)c(C(N)=O)c(N2CCC3(CN(c4ccc(Cl)cc4)C3)C2)c2ccccc21 ... 42
12) Cn1c(=O)c(C#N)c(N2CCC3(CN(c4ccc(N5CCOCC5)cc4)C3)C2)c2ccccc21 ... 1700
13) Cn1c(=O)c(C#N)c(N2CCC3(CN(c4ccc(F)cc4)C3)C2)c2ccccc21 ... 35
14) COc1ccc(N2CCC3(CCN(c4c(C#N)c(=O)n(C)c5ccccc45)CC3)C2)cc1 ... 91
15) COc1ccc(N2CC3(CCN(c4c(C#N)c(=O)n(C)c5ccccc45)C3)C2)cc1 ... 103
16) Cn1c(=O)c(C#N)c(N2CC3(CCN(c4ccc(OC(F)(F)F)cc4)C3)C2)c2ccccc21 ... 19

* * *

Known log10 of IC50 of a selection of molecules
Target: DGKα (Homo sapiens, UniProt P23743)
Test: Human DGKα kinase activity inhibition assay (ADP-Glo)
Conditions: in vitro, C-terminally FLAG-tagged recombinant full-length human DGKα, 1,2-dioleoyl-sn-glycerol substrate, ADP-Glo readout
Property: log10 of IC50 (log10 of the value in nM)

1) Cn1c(=O)c(C#N)c(N2CCC3(CCN(c4ccc(OC(F)(F)F)cc4)C3)C2)c2ccccc21 (centres unmarked) [Example 19] ... 2.09
2) COCCN(C)c1ccc2c(N3CCC4(CCN(c5cccc(Cl)c5)C4)CC3)c(C#N)c(=O)n(C)c2c1 [Example 34] ... 1.28
3) Cn1c(=O)c(C#N)c(N2CCC3(CCN(c4ccc(F)cc4)C3)C2)c2ccccc21 (centres unmarked) [Example 23] ... 2.73
4) COc1cccc(N2CC3(CCN(c4c(C#N)c(=O)n(C)c5ccccc45)C3)C2)c1 [Example 20] ... 2.19
5) Cn1c(=O)c(C#N)c(N2CCC3(CN(c4ccc(N5CCCC5=O)cc4)C3)C2)c2ccccc21 [Example 22] ... 2.68
6) COc1cccc(N2CCC3(CCN(c4c(C#N)c(=O)n(C)c5ccccc45)CC3)C2)c1 [Example 9] ... 1.04
7) COCCN(C)c1ccc2c(N3CCC4(CCN(c5cccc(OC(F)(F)F)c5)C4)CC3)c(C#N)c(=O)n(C)c2c1 [Example 32] ... 1.58
8) CN(C)c1ccccc1N1CCC2(CCN(c3c(C#N)c(=O)n(C)c4ccccc34)CC2)C1 [Example 13] ... 1.71
